// reported optical density for each item listed
# measured_on: human ACVR2A (human, UniProt P27037 20-135, limits assumed)
# Sequence (P27037 20-135 limits assumed): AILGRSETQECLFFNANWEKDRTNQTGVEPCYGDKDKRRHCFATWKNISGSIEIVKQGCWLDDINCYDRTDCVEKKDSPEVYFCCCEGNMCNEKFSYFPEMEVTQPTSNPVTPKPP
# assay_notes: ELISA; further: test concentration or dose not given here
# Description: The binding of ACVR2A-specific monoclonal antibodies to human ACVR2A, mouse ACVR2A, biotinylated goat anti-human kappa light chain (positive control) and human Fc (negative control) were determined by ELISA.
Your answer is read as OD, so omit the unit and give the number.

Check out these entries, answers already filled in.
Q. I am curious: what optical density value has been reported for 368_G05 (antibody, V domains shown, VH/VL only) VH: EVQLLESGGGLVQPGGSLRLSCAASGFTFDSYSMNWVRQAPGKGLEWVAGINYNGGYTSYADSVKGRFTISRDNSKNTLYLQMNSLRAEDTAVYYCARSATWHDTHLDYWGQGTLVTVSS VL: DIQMTQSPSSLSASVGDRVTITCRASQSILTYVNWYQQKPGKAPKLLIYAATSLHSGVPSRFSGSGSGTDFTLTISSLQPEDFATYYCQQSYNTPLTFGGGTKVEIK ?
A. 2.17

Q. Repeat for the following binder: 376_E03 (antibody, V domains shown, VH/VL only) VH: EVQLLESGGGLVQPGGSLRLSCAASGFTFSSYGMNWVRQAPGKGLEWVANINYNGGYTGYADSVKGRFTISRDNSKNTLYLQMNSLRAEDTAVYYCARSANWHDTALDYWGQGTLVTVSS VL: DIQMTQSPSSLSASVGDRVTITCRASQSILSYVNWYQQKPGKAPKLVIYAATSLASGVPSRFSGSGSGTDFTLTISSLQPEDFATYYCQQSYDLPLTFGGGTKVEIK
A. 3.79

Q. Same lookup for 369_A05 (antibody, V domains shown, VH/VL only) VH: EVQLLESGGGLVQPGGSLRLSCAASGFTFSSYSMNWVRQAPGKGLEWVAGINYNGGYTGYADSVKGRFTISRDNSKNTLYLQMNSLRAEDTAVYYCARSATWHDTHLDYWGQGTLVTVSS VL: DIQMTQSPSSLSASVGDRVTITCRASQSILTYVNWYQQKPGKAPKLVIYAATSRASGVPSRFSGSGSGTDFTLTISSLQPEDFATYYCQQSYESPLTFGGGTKVEIK , please.
A. 3.29

New cases:
Q. # get_value(readout='optical density', item= 376_G09 (antibody, V domains shown, VH/VL only) VH: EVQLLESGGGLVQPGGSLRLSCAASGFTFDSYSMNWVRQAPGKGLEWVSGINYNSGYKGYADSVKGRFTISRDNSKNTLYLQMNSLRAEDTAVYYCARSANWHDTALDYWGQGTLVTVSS VL: DIQMTQSPSSLSASVGDRVTITCRASQSISYYLNWYQQKPGKAPKLLIYAVTSRASGVPSRFSGSGSGTDFTLTISSLQPEDFATYYCQQSYDNPLTFGGGTKVEIK )
A. 3.68

Q. Please answer likewise for 368_E11 (antibody, V domains shown, VH/VL only) VH: EVQLLESGGGLVQPGGSLRLSCAASGFTFDSYGMHWVRQAPGKGLEWVANINYNGGYTSYADSVKGRFTISRDNSKNTLYLQMNSLRAEDTAVYYCARSATWHDTHLDYWGQGTLVTVSS VL: DIQMTQSPSSLSASVGDRVTITCRASQSIISYVNWYQQKPGKAPKLLIYAATSRHSGVPSRFSGSGSGTDFTLTISSLQPEDFATYYCQQSYELPLTFGGGTKVEIK
A. 2.57
